- assay-target: GCN2 (Homo sapiens, UniProt Q9P2K8)
- Sequence (Q9P2K8 whole entry): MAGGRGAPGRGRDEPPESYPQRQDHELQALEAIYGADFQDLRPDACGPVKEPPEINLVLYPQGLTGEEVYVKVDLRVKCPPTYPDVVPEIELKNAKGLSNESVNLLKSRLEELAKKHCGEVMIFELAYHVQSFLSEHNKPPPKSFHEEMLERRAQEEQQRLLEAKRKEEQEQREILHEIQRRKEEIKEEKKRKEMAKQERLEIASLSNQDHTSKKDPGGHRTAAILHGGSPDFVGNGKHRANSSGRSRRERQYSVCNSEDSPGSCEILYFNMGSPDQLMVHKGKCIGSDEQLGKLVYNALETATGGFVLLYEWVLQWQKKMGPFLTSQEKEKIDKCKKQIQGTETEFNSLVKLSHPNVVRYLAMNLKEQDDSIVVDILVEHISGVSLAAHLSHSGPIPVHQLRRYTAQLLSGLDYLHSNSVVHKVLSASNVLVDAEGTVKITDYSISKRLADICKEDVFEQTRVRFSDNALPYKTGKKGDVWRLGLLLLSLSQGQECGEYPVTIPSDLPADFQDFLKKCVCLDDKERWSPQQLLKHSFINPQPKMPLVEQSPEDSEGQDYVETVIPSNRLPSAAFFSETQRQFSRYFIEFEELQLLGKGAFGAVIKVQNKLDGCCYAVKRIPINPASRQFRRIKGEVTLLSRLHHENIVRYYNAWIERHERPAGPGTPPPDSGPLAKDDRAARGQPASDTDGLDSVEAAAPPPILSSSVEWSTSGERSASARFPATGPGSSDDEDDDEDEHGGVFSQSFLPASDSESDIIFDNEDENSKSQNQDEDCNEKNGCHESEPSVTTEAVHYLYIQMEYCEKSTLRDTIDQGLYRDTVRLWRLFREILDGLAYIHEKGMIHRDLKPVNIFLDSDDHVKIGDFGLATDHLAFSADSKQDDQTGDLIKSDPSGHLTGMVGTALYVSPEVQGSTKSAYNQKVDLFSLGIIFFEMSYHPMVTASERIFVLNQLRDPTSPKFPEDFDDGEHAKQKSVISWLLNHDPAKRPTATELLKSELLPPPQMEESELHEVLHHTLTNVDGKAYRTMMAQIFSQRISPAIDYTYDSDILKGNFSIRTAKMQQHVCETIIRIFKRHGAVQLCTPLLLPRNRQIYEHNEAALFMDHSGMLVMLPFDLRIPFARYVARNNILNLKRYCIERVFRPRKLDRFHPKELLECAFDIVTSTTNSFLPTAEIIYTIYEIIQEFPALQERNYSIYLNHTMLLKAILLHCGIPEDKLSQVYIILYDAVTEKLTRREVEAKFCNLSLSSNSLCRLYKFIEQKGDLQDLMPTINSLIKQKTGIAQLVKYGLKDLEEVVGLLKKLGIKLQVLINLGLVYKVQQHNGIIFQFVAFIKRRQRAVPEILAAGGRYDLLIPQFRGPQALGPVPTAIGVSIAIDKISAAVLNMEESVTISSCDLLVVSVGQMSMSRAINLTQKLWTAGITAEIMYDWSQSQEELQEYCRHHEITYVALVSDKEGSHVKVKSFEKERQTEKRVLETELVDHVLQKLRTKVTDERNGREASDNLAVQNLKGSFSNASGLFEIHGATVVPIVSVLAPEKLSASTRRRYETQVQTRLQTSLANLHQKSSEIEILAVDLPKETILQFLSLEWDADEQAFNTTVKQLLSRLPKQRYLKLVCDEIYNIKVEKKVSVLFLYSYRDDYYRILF
- assay-name: GCN2 enzymatic endpoint assay: phosphorylation of GFP-eIF2α measured by TR-FRET (Lanthascreen)
- Type: biochemical
- protocol-conditions: tested as described in Example 77; compound and/or hydrochloride, dihydrochloride or trifluoroacetic acid salt; read-out: IC 50 Activity
- Experimental: The Enzymatic assay was run as an endpoint assay to quantify the activity of the serine/threonine GCN2 kinase by way of measuring phosphorylation of its natural substrate, eiF2α. The enzymatic reaction was initiated by incubating with 2 μM ATP and 80 nM of GFP labeled eiF2a substrate at room temperature and then stopped after 90 minutes with EDTA. The amount of phosphorylated eIF2α is determined by TR-FRET (Lanthascreen). […]
endpoint-name: IC50

compound	assay-target	meas-value
CNC(=O)[C@]1(C)CC[C@@H](Nc2ncc3c(Br)nn(-c4cc(CC(C)(C)O)c5ncccc5c4)c3n2)C1	GCN2 (Homo sapiens, UniProt Q9P2K8)	25 to 200 nM
CN1CN(C(=O)[C@]2(C)CC[C@@H](Nc3ncc4c(Br)nn(-c5cc(F)c6ncccc6c5)c4n3)C2)CC1=O	GCN2 (Homo sapiens, UniProt Q9P2K8)	< 25 nM
CNC(=O)[C@]1(C)CC[C@@H](Nc2ncc3c(Br)nn(-c4cc(C#N)cc(OCC(C)O)c4)c3n2)C1 (stereo partly drawn)	GCN2 (Homo sapiens, UniProt Q9P2K8)	25 to 200 nM
CNC(=O)[C@]1(C#N)CC[C@@H](Nc2ncc3c(Br)nn(-c4ccc(-c5nnc(C)s5)cc4)c3n2)C1	GCN2 (Homo sapiens, UniProt Q9P2K8)	25 to 200 nM
CNC(=O)[C@]1(C)CC[C@@H](Nc2ncc3c(Br)nn(-c4ccc(-c5nnc(C)o5)nc4)c3n2)C1	GCN2 (Homo sapiens, UniProt Q9P2K8)	25 to 200 nM
CNC(=O)[C@]1(C)CC[C@@H](Nc2ncc3c(Br)nn(-c4cc(CCNC(=O)C(C)C)c5ncccc5c4)c3n2)C1	GCN2 (Homo sapiens, UniProt Q9P2K8)	25 to 200 nM
